Hello, the source for this data is patent US20260242735A1, in case you need it.

- system: human CD33 variant K52D (human, UniProt P20138 18-364)
- Sequence (P20138 18-364 K52D limits assumed): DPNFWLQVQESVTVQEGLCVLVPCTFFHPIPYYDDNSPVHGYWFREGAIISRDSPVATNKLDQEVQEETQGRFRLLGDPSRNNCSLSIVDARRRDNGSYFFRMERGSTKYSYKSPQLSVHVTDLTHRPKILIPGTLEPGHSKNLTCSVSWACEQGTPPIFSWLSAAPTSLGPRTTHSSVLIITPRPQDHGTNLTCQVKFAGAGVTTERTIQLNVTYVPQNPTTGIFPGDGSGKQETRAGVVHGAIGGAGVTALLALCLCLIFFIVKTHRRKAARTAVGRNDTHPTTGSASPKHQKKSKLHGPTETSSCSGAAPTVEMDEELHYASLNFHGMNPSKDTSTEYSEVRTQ
- method: flow cytometry, IgG on cells expressing the mutant
Measured Mean % WT Binding values are reported for all entries that follow.

Examples from the recorded data:
Refmab #3 (antibody, human IgG1, V domains shown, Tested in IgG format; human IgG1 Fc silent (PG-LALA)) VH: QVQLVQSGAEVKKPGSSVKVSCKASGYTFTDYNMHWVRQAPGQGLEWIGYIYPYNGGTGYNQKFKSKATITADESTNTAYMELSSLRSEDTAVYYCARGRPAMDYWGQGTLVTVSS VL: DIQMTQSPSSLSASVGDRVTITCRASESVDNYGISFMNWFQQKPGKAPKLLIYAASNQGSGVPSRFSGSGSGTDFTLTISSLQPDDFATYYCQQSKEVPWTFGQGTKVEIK :: 101 % of WT
Refmab #1 (antibody, human IgG1, V domains shown, Tested in IgG format; human IgG1 (Absolute Antibody hP67.6, Cat. No. Ab00283-10.0); also called hP67.6) VH: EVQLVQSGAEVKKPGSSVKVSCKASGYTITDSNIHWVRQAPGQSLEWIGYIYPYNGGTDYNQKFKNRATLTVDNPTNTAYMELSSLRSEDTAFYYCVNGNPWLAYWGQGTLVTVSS VL: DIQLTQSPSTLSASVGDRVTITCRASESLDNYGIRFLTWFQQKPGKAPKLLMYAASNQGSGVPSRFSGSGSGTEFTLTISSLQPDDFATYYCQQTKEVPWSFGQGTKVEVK :: 101 % of WT
Refmab #4 (antibody, human IgG1, V domains shown, Tested in IgG format; human IgG1 Fc silent (PG-LALA)) VH: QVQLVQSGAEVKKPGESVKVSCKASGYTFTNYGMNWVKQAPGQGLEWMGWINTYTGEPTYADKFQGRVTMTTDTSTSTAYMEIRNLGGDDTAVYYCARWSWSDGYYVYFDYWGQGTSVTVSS VL: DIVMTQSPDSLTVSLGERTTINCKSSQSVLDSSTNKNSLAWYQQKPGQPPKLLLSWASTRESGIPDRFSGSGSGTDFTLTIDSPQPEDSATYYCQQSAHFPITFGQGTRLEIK :: 9.4 % of WT

// switching to the query binder
# input Mean % WT Binding lookup needed for Refmab #2 (antibody, human IgG1, V domains shown, Tested in IgG format; human IgG1 Fc silent (PG-LALA)) VH: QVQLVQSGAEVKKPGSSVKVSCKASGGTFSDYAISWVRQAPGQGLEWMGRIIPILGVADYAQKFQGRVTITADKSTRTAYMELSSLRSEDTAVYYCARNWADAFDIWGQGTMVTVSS VL: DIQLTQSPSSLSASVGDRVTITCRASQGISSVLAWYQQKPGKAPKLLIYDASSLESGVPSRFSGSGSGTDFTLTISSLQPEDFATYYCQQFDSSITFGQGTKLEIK , thanks.
# output 5.3 % of WT
